# reported selectivity ratio; entries follow
assay: Selectivity index, ratio of CC50 for cytotoxicity against human L-132 cells assessed as inhibition of cell growth to IC50 for antifungal activity against Aspergillus fumigatus ATCC 46645 assessed as inhibition of fungal growth; assay type: toxicity, cell-based; conditions: read-out: Ratio IC50
parameter: selectivity ratio

# smiles string, parameter, number
rows = [
    ("CCCc1ccc(O)c(OC)c1", "selectivity ratio", 16),
    ("C=CCc1ccc(OCc2cn([C@@H]3O[C@H](COC(C)=O)[C@@H](OC(C)=O)[C@H](OC(C)=O)[C@H]3OC(C)=O)nn2)c(OC)c1", "selectivity ratio", 8.01),
]

----------
test: Cytotoxicity against human L132 cells assessed as inhibition of cell growth incubated for 24 hrs by MTT assay; format: toxicity, cell-based
# reported CC50 at 24 h; entries follow

# smiles string, CC50 at 24 h (µM)
measured = [
    ("C=CCc1ccc(OCc2cn([C@@H]3O[C@H](COC(C)=O)[C@@H](OC(C)=O)[C@H](OC(C)=O)[C@H]3OC(C)=O)nn2)c(OC)c1", 43.5),
    ("CCCc1ccc(O)c(OC)c1", 150),
]
